Please provide measured IC50 for the entries that follow.
test system: MOLM-13 cells; experiment: Cell viability assay (CellTiter-Glo) in MOLM-13 cells, alone or with gilteritinib; assay type: cell-based; conditions: Homo sapiens, MOLM-13, 72 h, MOLM-13 cells, with gilteritinib 20 nM, three days, CellTiter-Glo; read-out: MOLM-13 IC50 gilteritinib

Take a look at these entries with their results.
- molecule: "O=C1CCC(N2C(=O)c3ccc(NCCCCCCc4ncc(-c5cnc6ccccc6n5)s4)cc3C2=O)C(=O)N1 (centres unmarked)"
  IC50: "< 10 nM"
- molecule: "O=C1CCC(N2C(=O)c3ccc(NC[C@H]4C[C@H](n5cc(-c6nccc7cc[nH]c67)c(C6CC6)n5)C4)cc3C2=O)C(=O)N1 (some centres unmarked)"
  IC50: "10 to 100 nM"
- molecule: "O=C1CCC(N2C(=O)c3ccc(NC4CCC(CCCn5cc(-c6cnc7ccccc7n6)cn5)CC4)cc3C2=O)C(=O)N1 (centres unmarked)"
  IC50: "100 to 1000 nM"

Provide reported IC50 for each item, in the same order as listed.
1. O=C1CCC(N2Cc3c(Nc4ccnc(N5CCC(n6cc(-c7cnc8ccccc8n7)cn6)CC5)n4)cccc3C2=O)C(=O)N1 (centres unmarked)
2. O=C1CCC(N2C(=O)c3ccc(NCCC[C@H]4C[C@H](n5cc(-c6cccc(N7CCC(O)CC7)n6)cn5)C4)cc3C2=O)C(=O)N1 (some centres unmarked)

["> 1000 nM", "> 1000 nM"]

* * *

test system: MV4;11 cells; assay: Cell viability assay (CellTiter-Glo) in MV4;11 cells, alone or with gilteritinib; format: cell-based; details: Homo sapiens, MV4-11, 72 h, read-out: MV4; 11 IC50 gilteritinib
measured quantity: pIC50
Numbers only, as −log10 of the molar value.

- compound: "O=C1CCC(N2C(=O)c3ccc(NCCCCCC(=O)N4CCN(c5ccccn5)CC4)cc3C2=O)C(=O)N1 (stereo not shown) [GS-019]"
  experimental result: 8.03

// moving on: another record for pIC50
// returns reported pIC50 for input O=C1CCC(N2C(=O)c3ccc(NCCCCCC(=O)N4CCC(c5ccccc5)CC4)cc3C2=O)C(=O)N1 (stereo not shown) [GS-010]
8.64

* * *

test system: MOLM-13 cells; assay: Cell viability assay (CellTiter-Glo) in MOLM-13 cells, alone or with gilteritinib; format: cell-based; conditions: Homo sapiens, MOLM-13, 72 h, MOLM-13 cells, compound alone (without gilteritinib), three days, CellTiter-Glo; read-out: MOLM-13 IC50
measured quantity: IC50

Answered examples (2):
- compound: "O=C1CCC(N2C(=O)c3ccc(NCCC[C@H]4C[C@H](n5cc(-c6cnc7ccc(C8CCOCC8)cc7n6)cn5)C4)cc3C2=O)C(=O)N1 (stereo partly drawn)"
  measured quantity: "IC50"
  experimental result: "10 to 100 nM"
- compound: "Cn1cccc(-c2cn([C@H]3C[C@H](CNc4ccc5c(c4)C(=O)N(C4CCC(=O)NC4=O)C5=O)C3)nc2C2CC2)c1=O (stereo partly drawn)"
  measured quantity: "IC50"
  experimental result: "> 1000 nM"

Endpoint output: IC50 of Cc1cccc(-c2cn([C@H]3C[C@H](CNc4ccc5c(c4)C(=O)N(C4CCC(=O)NC4=O)C5=O)C3)nc2C2CCOCC2)n1 (stereo partly drawn) . Value?
> 1000 nM

* * *

So I've got a bunch of molecules here, and I need their pIC50 values.
system: MOLM-13 cells; experiment: Cell viability assay (CellTiter-Glo) in MOLM-13 cells, alone or with gilteritinib; format: cell-based; conditions: Homo sapiens, 72 h; MOLM-13 cells, compound alone (without gilteritinib), three days, CellTiter-Glo; read-out: MOLM-13 IC50
pIC50: −log10 of the molar value.

Worked cases, answers included:
- molecule: "CN1CCC(Nc2cccc(-c3cn([C@H]4C[C@H](CNc5ccc6c(c5)C(=O)N(C5CCC(=O)NC5=O)C6=O)C4)nc3C3CC3)n2)CC1 (stereo partly shown) [GS-454]"
  assay target: "MOLM-13 cells"
  pIC50: "< 6.00"
- molecule: "O=C1CCC(N2C(=O)c3ccc(NCCCC(=O)N4CCN(c5ccccn5)CC4)cc3C2=O)C(=O)N1 (stereo not shown) [GS-318]"
  assay target: "MOLM-13 cells"
  pIC50: "< 6.00"
- molecule: "O=C1CCC(N2C(=O)c3ccc(NCCC4CC(Cn5cc(-c6cnc7ccccc7n6)cn5)C4)cc3C2=O)C(=O)N1 (stereo not shown) [GS-558]"
  assay target: "MOLM-13 cells"
  pIC50: "< 6.00"

Now consider a different molecule.
What value of measured pIC50 is listed for O=C1CCC(N2C(=O)c3ccc(NCCNc4cccc(N5CCN(c6ccccn6)CC5)c4)cc3C2=O)C(=O)N1 (stereo not shown) [GS-372] ?
> 8.00

* * *

tested on: MOLM-13 cells; test: Cell viability assay (CellTiter-Glo) in MOLM-13 cells, alone or with gilteritinib; format: cell-based; settings: Homo sapiens, MOLM-13, 72 h, MOLM-13 cells, compound alone (without gilteritinib), three days, CellTiter-Glo; read-out: MOLM-13 IC50
measured quantity: IC50

Worked cases, answers included:
- compound: "O=C1CCC(N2C(=O)c3ccc(NC[C@H]4C[C@H](n5cc(-c6cccc(N7CCC7)n6)c(C6CC6)n5)C4)cc3C2=O)C(=O)N1 (some centres unmarked)"
  measured quantity: "IC50"
  experimental result: "10 to 100 nM"
- compound: "O=C1CCC(N2Cc3c(Nc4ccnc(Nc5ccc(N6CCC(n7cc(-c8cnc9cccc(Br)c9n8)cn7)CC6)cc5)n4)cccc3C2=O)C(=O)N1 (centres unmarked)"
  measured quantity: "IC50"
  experimental result: "> 1000 nM"
- compound: "O=C1CCC(N2C(=O)c3ccc(NCCCCCCn4cc(-c5cnc6ccc(C(F)(F)F)cc6n5)cn4)cc3C2=O)C(=O)N1 (centres unmarked)"
  measured quantity: "IC50"
  experimental result: "10 to 100 nM"
- compound: "CN1CCN(c2cccc(-c3cn([C@H]4C[C@H](CNc5ccc6c(c5)C(=O)N(C5CCC(=O)NC5=O)C6=O)C4)nc3C3CC3)n2)CC1 (some centres unmarked)"
  measured quantity: "IC50"
  experimental result: "100 to 1000 nM"
- compound: "O=C1CCC(N2C(=O)c3ccc(NCCC[C@H]4C[C@H](n5cc(-c6cnc7cc(N8CCNCC8)ccc7n6)cn5)C4)cc3C2=O)C(=O)N1 (some centres unmarked)"
  measured quantity: "IC50"
  experimental result: "10 to 100 nM"
- compound: "Cc1nn(CCCCCCNc2ccc3c(c2)C(=O)N(C2CCC(=O)NC2=O)C3=O)c(C)c1-c1ccc2ccccc2n1 (centres unmarked)"
  measured quantity: "IC50"
  experimental result: "100 to 1000 nM"
- compound: "O=C1CCC(N2C(=O)c3ccc(NC[C@H]4C[C@H](n5cc(-c6cc7cn[nH]c7cn6)c(C6CC6)n5)C4)cc3C2=O)C(=O)N1 (some centres unmarked)"
  measured quantity: "IC50"
  experimental result: "> 1000 nM"
- compound: "O=C1CCC(N2C(=O)c3ccc(NC[C@H]4C[C@H](n5cc(-c6cnccn6)c(C6CC6)n5)C4)cc3C2=O)C(=O)N1 (some centres unmarked)"
  measured quantity: "IC50"
  experimental result: "> 1000 nM"
- compound: "O=C1CCC(N2C(=O)c3ccc(NCC4CCC(Cn5cc(-c6cnc7ccccc7n6)cn5)CC4)cc3C2=O)C(=O)N1 (centres unmarked)"
  measured quantity: "IC50"
  experimental result: "> 1000 nM"
- compound: "O=C1CCC(N2C(=O)c3ccc(NCCCCCCN4CCC(n5cc(-c6cnc7ccccc7n6)cn5)CC4)cc3C2=O)C(=O)N1 (centres unmarked)"
  measured quantity: "IC50"
  experimental result: "> 1000 nM"

For each of the compounds below, note its IC50.
1. COc1cccnc1-c1cnn([C@H]2C[C@H](CCCNc3ccc4c(c3)C(=O)N(C3CCC(=O)NC3=O)C4=O)C2)c1 (some centres unmarked)
2. O=C1CCC(N2C(=O)c3ccc(NCCC[C@H]4C[C@H](n5cc(-c6cnc7ccc(OC8CC8)cc7n6)cn5)C4)cc3C2=O)C(=O)N1 (some centres unmarked)
3. CN1C(=O)CCC(N2C(=O)c3ccc(NCCC[C@H]4C[C@H](n5cc(-c6cnc7ccccc7n6)c(C6CC6)n5)C4)cc3C2=O)C1=O (some centres unmarked)

1: 10 to 100 nM; 2: 100 to 1000 nM; 3: > 1000 nM

* * *

Could you please report measured pIC50 for the items listed next?
tested on: MV4;11 cells; assay: Cell viability assay (CellTiter-Glo) in MV4;11 cells, alone or with gilteritinib; type: cell-based; conditions: Homo sapiens, MV4-11, 72 h, MV4;11 cells, with 10 nM gilteritinib, 3 days, CellTiter-Glo; read-out: MV4; 11 IC50 gilteritinib
One number for each entry, as −log10 of the molar value.

- compound: "O=C(COc1ccc2c(c1)CN(C1CCC(=O)NC1=O)C2=O)NCCC(=O)N1CCC(n2cc(-c3cnc4cccc(Br)c4n3)cn2)CC1 (stereo not drawn)"
  pIC50: 7.22
- compound: "O=C1CCC(N2C(=O)c3ccc(NCCCCCC(=O)N4CCC(n5cc(C6CC6)cn5)CC4)cc3C2=O)C(=O)N1 (stereo not drawn)"
  pIC50: 7.57
- compound: "O=C1CCC(N2C(=O)c3ccc(NCCCCCC(=O)N4CCC(n5cc(C6CNc7ccccc7N6)cn5)CC4)cc3C2=O)C(=O)N1 (stereo not drawn)"
  pIC50: 7.57

Provide the reported pIC50 of each entry below, same order.
1. O=C1CCC(N2C(=O)c3ccc(NCCCCCC(=O)N4CCC(n5cccn5)CC4)cc3C2=O)C(=O)N1 (stereo not drawn)
2. O=C1CCC(N2C(=O)c3ccc(NCCCCCC(=O)N4CCC(n5cc(-c6cnccn6)cn5)CC4)cc3C2=O)C(=O)N1 (stereo not drawn)
3. O=C1CCC(N2C(=O)c3ccc(NCCCCCC(=O)N4CC(n5cc(-c6cnc7cccc(Br)c7n6)cn5)C4)cc3C2=O)C(=O)N1 (stereo not drawn)

1: 6.72; 2: 7.66; 3: 5.72
